- Tested on: Ba/F3 cells, wildtype EGFR
- experimental_protocol: Ba/F3 resazurin antiproliferative assay
- Assay type: cell-based
- details: Mus musculus, BaF3; Ba/F3, 72 h; read-out: EGFR EC50, wt
pEC50: −log10 of the molar value.
Form field: pEC50 (one value per entry).
quantity_kind: pEC50

- C=CC(=O)Nc1ccc(OC)c(Nc2cc(-c3[nH]c(CC)nc3-c3cccc(NC(=O)c4cccc5c4NC(=O)c4ccccc4N5)c3)ccn2)c1: 6.02
- CSc1nc(-c2cccc(NC(=O)c3cccc4c3NC(=O)c3ccccc3N4)c2)c(-c2ccnc(NC(C)=O)c2)[nH]1: 5.29

---

pIC50 overview
- measured_target: EGFR L858R/T790M (LRTM) kinase domain (Homo sapiens, UniProt P00533, L858R/T790M)
- Construct: The EGFR kinase domain (residues 696–1022) was cloned into pTriEx; 6xHis (N, cleaved yes); GST (N, cleaved yes); made in house; host or cells: SF9 insect cells, baculovirus
- Sequence (P00533 696-1022 T790M/L858R): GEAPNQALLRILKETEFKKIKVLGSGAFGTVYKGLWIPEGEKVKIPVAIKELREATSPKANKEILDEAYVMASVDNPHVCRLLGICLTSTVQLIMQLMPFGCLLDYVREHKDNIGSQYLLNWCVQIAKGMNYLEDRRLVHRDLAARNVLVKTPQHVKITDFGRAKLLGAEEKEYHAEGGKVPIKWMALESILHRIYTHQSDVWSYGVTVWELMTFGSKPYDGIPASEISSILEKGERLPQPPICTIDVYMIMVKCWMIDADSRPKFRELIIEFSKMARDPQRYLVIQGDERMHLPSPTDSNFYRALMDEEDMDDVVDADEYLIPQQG
- experimental_protocol: HTRF KinEASE-TK kinase activity assay
- Type: biochemical
- details: Table S1, ATP 100 µM; read-out: IC50, LRTM
pIC50: −log10 of the molar value.
quantity_kind: pIC50

* COc1ccc2c(c1)C(=O)Nc1c(cccc1C(=O)Nc1nccs1)N2 | ≤ 5.00
* O=C1Nc2c(cccc2C(=O)Nc2ccccc2)Nc2ccccc21 | ≤ 5.00
* CSc1nc(-c2cccc(CN3C(=O)c4ccccc4Nc4ccc(F)cc43)c2)c(-c2ccnc(NC(C)=O)c2)[nH]1 | ≤ 6.00
* O=C1Nc2c(cccc2C(=O)Nc2nccs2)Nc2ccccc21 | ≤ 5.00
